Kindly state ratio of MFI, pulsed to unpulsed for each of the entries shown.
# TARGET_UNDER_TEST: HLA-A2 on T2 cells pulsed with ZDHHC1 (376-384) peptide (human)
# PROTOCOL_SUMMARY: flow cytometry, 10 ug/ml, pulsed T2 cells
Answers are plain numbers, in ratio.

| BINDER | TEST_VALUE |
| --- | --- |
| mAb28128P (antibody, human IgG4 S228P, kappa, V domains shown) VH: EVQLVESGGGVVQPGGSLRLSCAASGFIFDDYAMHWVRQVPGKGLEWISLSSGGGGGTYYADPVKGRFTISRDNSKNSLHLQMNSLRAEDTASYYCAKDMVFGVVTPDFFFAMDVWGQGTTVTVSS VL: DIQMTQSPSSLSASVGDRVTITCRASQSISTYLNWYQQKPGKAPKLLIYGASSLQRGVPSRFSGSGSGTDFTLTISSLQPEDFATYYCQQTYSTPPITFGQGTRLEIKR | 1.6 |

// lookup ratio of MFI, pulsed to unpulsed for mAb28105P (antibody, human IgG4 S228P, kappa, V domains shown) VH: EVQLVESGGGVVQPGGSLRLSCEASGFIFDDYAMHWVRQAPGKGLEWVSLISGDGDIIYYADSVKGRFTISRDNSKNSLYLQMNSLIIEDTALYYCAKDWVFGVVMTHYWYFGLDVWGQGTTVTVSS VL: DIQMTQSPSSLSASEGDRVTITCRASQSISTYLNWYQQKPGKAPKLLIYGASSLQSGVPSRFSGSGSGTDFTLTISSLQPEDFATYYCQQSYSTPPITFGQGTKVEIKR
0.5

Cited source: patent US20220251215A1
